Tested on: A549/ATCC NSCLC
METHOD: NCI-60 one-dose screen, 48 h
ASSAY_CONDITIONS: 10 µM unless noted
About 83,000 compounds went through this panel and 20% of them were active in at least one assay; those are over-represented in the sample as a whole. Calls of active or inactive are those of the source. The calls were made as follows: active = growth percent below 10; inactive = the rest.
Outcome codes: 1 (active), 0 (inactive)

# MOLECULE, LABEL
records = [
    ("c1ccc2c(-c3c[nH]c4ccccc34)c3c(cc2c1)[nH]c1ccccc13", 0),
    ("COc1cc2nc(-c3ccc(Cl)cc3)cc(OCCCN3CCOCC3)c2cc1OC", 0),
    ("O=C(N/N=C/c1cc2ccccc2n2nnnc12)Nc1ccccc1", 0),
    ("COc1ccccc1/C=C1\\Oc2cc(OCCN3CCCC3)ccc2C1=O", 0),
    ("COc1cccc(-c2nc3occn3c2-c2ccnc(NCCNS(=O)(=O)c3ccc(C(F)(F)F)cc3)n2)c1", 0),
    ("COc1ccc(C(=O)/C=C/c2cc3ccccc3n3nnnc23)cc1", 0),
    ("COc1ccc(C(=O)c2nc3ccccc3n2CC(=O)c2ccc(Cl)cc2)cc1", 0),
    ("CCOC(=O)c1cc(C(=O)c2ccc(OC)c(OC)c2)n2ccc(/C=C/c3cc[n+](CC(=O)c4ccc(OC)c(OC)c4)cc3)cc12", 0),
    ("COC(=O)CNC(=O)[C@]12CCC(C)(C)C[C@H]1C1=CC[C@@H]3[C@@]4(C)Cc5c([nH]c6ccccc56)C(C)(C)[C@@H]4CC[C@@]3(C)[C@]1(C)CC2", 0),
    ("Cc1c(C(=O)NCCC(=O)NO)sc2ncnc(Nc3ccc(F)c(Cl)c3)c12", 0),
    ("N#C/C(=C\\c1ccccn1)c1nc2cc(Cl)ccc2s1", 0),
    ("C#Cc1cccc(NC(=O)Nc2cccc(NC(=O)CCl)c2)c1", 0),
    ("Cc1nc2sccn2c1-c1cn2ccsc2n1", 0),
    ("COc1ccc(C(=O)Cn2c(C(=O)c3ccccc3)nc3ccccc32)cc1", 0),
    ("O=S(=O)(NCCNc1nccc(-c2c(-c3cccc(O)c3)nc3occn23)n1)c1ccccc1", 0),
    ("Nc1n[nH]c2cccc(C#Cc3cccc(C(=O)Nc4cccc(C(F)(F)F)c4)c3)c12", 0),
    ("CC(=O)N1c2ccccc2NC2=C(C(=O)NC2(C)C)C1c1ccco1 (stereo unspecified)", 0),
    ("C[C@H]1[C@H](C)CC[C@]2(C(=O)Nc3ccc4ncccc4c3)CC[C@]3(C)C(=CC[C@@H]4[C@@]5(C)CCCNC(C)(C)[C@@H]5CC[C@]43C)[C@H]12", 1),
    ("CC(=O)CCC(=O)OCc1cc(=O)c(O)co1", 0),
    ("COc1ccc2c(c1)C(=O)CC(c1ccccc1OC)O2 (stereo unspecified)", 0),
    ("O=S(=O)(Nc1ccc(-n2cnc3cc(-c4ccc(O)cc4)ccc32)cc1)c1ccccc1", 0),
    ("CN1CCN(C(=O)[C@]23CCC(C)(C)C[C@H]2C2=CC[C@@H]4[C@@]5(C)C/C(=C/c6ccncc6)C(=O)C(C)(C)[C@@H]5CC[C@@]4(C)[C@]2(C)CC3)CC1", 0),
    ("O=S(=O)(NCCCNc1nccc(-c2c(-c3cccc(F)c3)nc3sccn23)n1)c1cccc2ccccc12", 0),
    ("COc1cc(C(=O)Nc2cc3c(cc2Oc2cc(C)cc(C)c2)C(=O)N(C)[C@@H](CC(=O)N(C)O)C(=O)N3)c(Br)c(OC)c1OC", 1),
    ("COc1ccc(C(=O)c2cc(C)c(OC)c(C)c2)c(OC)c1N(C(=O)CCl)C(=O)CCl", 0),
    ("C=C1C(=O)O[C@H]2[C@H]1CC/C(COC(=O)NCC(C)c1ccc(CC(C)C)cc1)=C\\CC[C@@]1(C)O[C@@H]21 (stereo partly specified)", 0),
    ("CC1(C)c2[nH]c3ccccc3c2C[C@]2(C)[C@H]3C(=O)C=C4[C@@H]5C[C@@](C)(C(N)=O)CC[C@]5(C)CC[C@@]4(C)[C@]3(C)CC[C@@H]12", 0),
    ("C=C1C(=O)O[C@H]2[C@H]1CC/C(CNC(=O)/C=C/c1cccc(OC)c1)=C\\CC[C@@]1(C)O[C@@H]21", 0),
    ("C=C1C(=O)O[C@H]2[C@H]1CC/C(COC(=O)NCc1c[nH]c3ccc(F)cc13)=C\\CC[C@@]1(C)O[C@@H]21", 0),
    ("CCNc1nc2cc(Nc3ccnc4cc(Cl)ccc34)ccc2o1", 0),
    ("Cc1cc2c(C(=O)NCC#N)cccc2n1-c1nc2c(c(NCc3ccccc3)n1)CCCC2", 1),
    ("COc1cc(/C=N/NC(=O)c2cnn3c2NC(c2ccccc2)C3)ccc1OCc1ccccc1 (stereo unspecified)", 1),
    ("C=C1C(=O)O[C@H]2[C@H]1CC/C(C(=O)NCCCCCNC(=O)/C1=C/CC[C@@]3(C)O[C@H]3[C@H]3OC(=O)C(=C)[C@@H]3CC1)=C\\CC[C@@]1(C)O[C@@H]21", 0),
    ("Oc1c(Cl)cc(Cl)c(Cl)c1CNCCNCc1c(O)c(Cl)cc(Cl)c1Cl", 0),
    ("CNC(=O)c1cccc(Cn2nc(C)c(NC(=O)c3ccc(COc4ccc(C(F)(F)F)cc4C)cc3)c2C)c1", 0),
    ("CCSCC1CC(O)(c2ccccc2)CC(c2ccc(F)cc2)O1 (stereo unspecified)", 0),
]
